System: MDCK cells
Assay: Cytotoxicity in MDCK cells (CPE)
Assay type: cell-based, Canine
Conditions: 48 h, Reed & Muench
This section presents molecules with their documented TC50 (50% cytotoxic concentration), Influenza A/hanfang/359/95 values.
Field: numeric (µM). Do not append units.

Example entries begin here.
chemical smiles	unit name	recorded result
Clc1ccc(CNc2ccc3cc[nH]c3c2)cc1	µM	3.35
Cc1ccc(CNc2ccc3cc[nH]c3c2)s1	µM	26.50
C(=C\c1ccccc1)/CNc1ccc2ncoc2c1	µM	133.16
c1ccc2c(CNc3ccc4ncsc4c3)c3ccccc3cc2c1	µM	1.73
c1csc(CNc2ccc3ncoc3c2)c1	µM	434.24

Let us examine a further case.
INPUT: Return TC50 (50% cytotoxic concentration), Influenza A/hanfang/359/95 measured with MDCK cells given this molecule: COc1cccc(CNc2ccc3ncsc3c2)c1O
OUTPUT: 55.95
